Molecular target: T1, human TIGIT over-expressed on cells (human, UniProt Q495A1 22-244)
T1 construct: also called CHO-K1/human TIGIT cells; CHO cells expressing human TIGIT
T1 sequence: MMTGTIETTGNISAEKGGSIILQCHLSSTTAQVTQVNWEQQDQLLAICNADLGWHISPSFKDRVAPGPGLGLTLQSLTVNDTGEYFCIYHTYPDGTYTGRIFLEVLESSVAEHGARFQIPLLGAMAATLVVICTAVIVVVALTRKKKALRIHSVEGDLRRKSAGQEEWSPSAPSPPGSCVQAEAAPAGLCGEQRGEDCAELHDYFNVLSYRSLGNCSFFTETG
Assay: FACS, CHO-K1 cells over-expressing human TIGIT
Entry flag: YES if Top (best-fit) reaches 200; NO if it does not.

Consider the worked cases shown below.
binder | className
48B5G4E12 (antibody, V domains shown, Mouse monoclonal antibody; also called mouse anti-human TIGIT monoclonal antibody 48B5G4E12) VH: QVQLQQPGAELVKPGASVKMSCKASGYTFTSYNMHWVKQTPGQGLEWIGGIYPGNGATSYNQKFKGKATLTADKSSSTAYMQLSSLTSEDSAVYYCARSGLRAMDYWGQGTSVTVSS VL: QIVLTQSPAIMSASPGEKVTMTCSASSSVSYMYWYQQKTGSSPRLLIYDTSNLASGVPVRFSGSGSGTSYSLTISRMEAEDAATYYCQQWSSYPYTFGGGTKLEIK | YES
16F10H12C11 (antibody, V domains shown, Mouse monoclonal antibody; also called mouse anti-human TIGIT monoclonal antibody 16F10H12C11) VH: EVLLQQSGPELVKPGASVKIPCKASGYTFTDYNIDWVKQSHGKSLEWIGDINPNTGGTIYNQKFKGKATLTVDKSSSTAYMELRSLTSEDTAVYYCARRWLLLVYAVDYWGQGTSVTVSS VL: QIVLTQSPAIMSASPGEKVTISCSASSSVTYMYWYQQKAGSSPKPWIYRTSNLASGVPARFGGSGSGTSYSLTISSMEAEDAATYYCQQYHSFPPTFGGGTKLEIK | NO

Evaluate 11D8E12A4 (antibody, V domains shown, Mouse monoclonal antibody; also called mouse anti-human TIGIT monoclonal antibody 11D8E12A4) VH: EVLLQQSGPELVKPGASVKIPCKASGYTFTDYNMDWVKQSHGKSLEWIGDINPNNGGTIYNQKFKGKATLTVDKSSSTAYMELRSLTSEDTAVYYCARRWLLLVYTMDYWGQGTSVTVSS VL: QIVLTQSPAIMSASPGEKVTISCSASSSVSYMYWYQQKPGSSPKPWIYRTSNLASGVPARFSGSGSGTSYSLTISSMEAEDAATYYCHQYHNYPPTFGGGTKLEIK : Top (best-fit) at minimum 200?
NO

What do you have for 128E3G7F5 (antibody, V domains shown, Mouse monoclonal antibody; also called mouse anti-human TIGIT monoclonal antibody 128E3G7F5) VH: EVLLQQSGPELVKTGASVKISCKASGYSFTAYYMHWVKQSHGKSLEWIGYISCYNGATTYNQKFKGKATFTVDTSSTTAYMQFNSLTSEDSAVYYCARRVYYGYDEALVYWGQGTSVTVSS VL: DIVMTQSPSSLSVSAGEKVTMTCKSSQSLLNSGNQKNYLAWYQQKPGQPPKLLIYGASTRGSGVPDRFTGSGSGTDFTLTISSVQAEDLAVYYCQNDHSYPYTFGGGTKLEIK ?
NO

Same read-out for 121C2F10B5 (antibody, V domains shown, Mouse monoclonal antibody; also called mouse anti-human TIGIT monoclonal antibody 121C2F10B5) VH: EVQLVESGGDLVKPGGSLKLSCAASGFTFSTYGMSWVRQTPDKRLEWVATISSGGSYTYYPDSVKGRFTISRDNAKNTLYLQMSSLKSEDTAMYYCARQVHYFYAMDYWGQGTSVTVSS VL: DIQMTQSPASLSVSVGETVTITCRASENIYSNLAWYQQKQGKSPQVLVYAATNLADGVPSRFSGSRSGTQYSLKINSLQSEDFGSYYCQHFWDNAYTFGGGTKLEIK ?
NO
